System: MOLT-4 leukemia
Measurement Protocol: NCI tumour cell line growth inhibition, 48 h
Observed Property: log10 of TGI (log10 of the value in µM)
Record value = log10 of TGI given in µM.

Worked examples follow.
CC1=C[C@H]2c3c(c(O)c(O)c4oc5c(C)cccc5c(=O)c34)[C@H](c3cc(O)c(O)c4oc5c(C)cccc5c(=O)c34)[C@H]2C(C)(C)C1: 1.49
CN(C)CCNC(=O)c1cc2ccccc2c2nc3ccccc3nc12: -0.31
CCc1n[nH]c(=S)n1/N=C\c1ccc(-c2ccccc2Cl)o1: 1.66
COC(=O)/C=C1/CCC2[C@@H](C(=O)CC3[C@]2(C)CCC[C@@]3(C)C(=O)OC)C1C (some centres undefined): 1.28

I need log10 of TGI for every entry listed below, if you could help.
1. COc1ccc(N2C(=O)C3c4[nH]c5ccccc5c4C4CCCCCCCCCCC4C3C2=O)cc1 (centres undefined)
2. Cc1c(Cl)ccc2c1NC(=O)C2(O)C(C(=O)c1ccccc1)c1ccccc1 (centres undefined)

1.57
1.88

====

Tested on: KM20L2 colon
Measurement Protocol: NCI tumour cell line growth inhibition, 48 h
Can you tell me TGI for the items I'm about to list?

Record excerpt, results attached:
CC(=O)[CH-]C(=O)c1ccccc1.CC(=O)[CH-]C(=O)c1ccccc1.CC[O-].CC[O-].[Zr+4]: > 100 µM
C/C(CC(=O)Nc1ccc(Cl)c(Cl)c1)=N/NC(=O)C[n+]1ccccc1: > 100 µM
Cc1ccc(NC(=O)CCC(CC(=O)C(C)(C)C)=NNC(=O)C(=O)NN)cc1C: > 100 µM
CCOC(=O)/C(=C\c1ccc(O)c(OC)c1)C(=O)c1ccccc1: > 56.7 µM

Each of the following entries comes with a recorded value; kindly state TGI for each.
1. CC1(C)COC(C23C4C5C2C2C3C4C52I)=N1 (centres undefined)
2. CC(=O)OC(/C=C1/C=CC(=O)O1)COC(=O)c1ccccc1 (centres undefined)
3. COc1cccc2c1CCc1ccccc1CC2=O
4. COC(=O)NC1C(C)OC(OC2C/C=C(/C)C3C=CC4C(OC5CC(OC6CC(O)C(OC7CC(O)C(OC)C(C)O7)C(C)O6)C(O)C(C)O5)C(C)CC(C)C4C3(C)/C(O)=C3\C(=O)OC4(CC(C)C(CO)=CC4/C=C\2C)C3=O)CC1(C)[N+](=O)[O-] (centres undefined)
5. Cc1cc(NC(=S)Nc2ccccc2)c(NC(=S)Nc2ccccc2)cc1C

> 100 µM
> 31.2 µM
> 100 µM
34 µM
> 92 µM

====

Test system: MCF7 breast
Measurement Protocol: NCI tumour cell line growth inhibition, 48 h; in the data active means GI50 below about 0.43 µM; inactive means the rest
// one of t = active, f = inactive, no free text

CCCN(CCC)C(=O)C1=Cc2ccc(-c3ccc(C(=O)N4CCCC4)cc3)cc2N=C(N)C1: f

Outcome? CCN(CC)CCCC(C)Nc1cnc(C(=O)Nc2ccc(Cl)c3cccnc23)cn1 (centres undefined)
f

Recorded call for CN(C)c1ccc(N2Cc3ccccc3OC3=C2C(=O)c2c(O)ccc(O)c2C3=O)cn1 ?
t

For CCOc1c(Br)cc(C2C(C(=O)OC)=CN(C)C=C2C(=O)OC)cc1OC , which call appears in the assay record?
f

====

Tested on: U251 CNS
Use one of these outcomes when replying: 1.0 (active), 0.0 (inactive)

Use the examples below as a reference point.
O=[N+]([O-])c1ccc(Br)c([N+](=O)[O-])c1: 0.0
CC1=C(C)C(=O)O[C@@H]([C@](C)(O)[C@]2(O)CC[C@@]3(O)[C@@H]4C[C@H]5O[C@]56[C@@H](O)C=CC(=O)[C@]6(C)[C@H]4CC[C@]23C)C1: 0.0
COc1cc2nc(-c3cnc(N(C)C)nc3)nc(NC3CCN(Cc4ccccc4)CC3)c2cc1OC: 1.0
O=c1cc(-c2cccc(C(F)(F)F)c2)[nH]c2cc3c(cc12)OCO3: 1.0

Which result was noted for this molecule in the test: O=C1NN(c2ccc(C(=O)O)cc2)C(=O)/C1=C\c1ccc([N+](=O)[O-])o1
0.0
